Reference for the values: patent US20250195521A1

# target_or_system: KRAS G12C (Homo sapiens (Human), UniProt P01116+P62937, G12C)
# Sequence (P01116-2 other isoform, or with tags, fused parts or gaps G12C): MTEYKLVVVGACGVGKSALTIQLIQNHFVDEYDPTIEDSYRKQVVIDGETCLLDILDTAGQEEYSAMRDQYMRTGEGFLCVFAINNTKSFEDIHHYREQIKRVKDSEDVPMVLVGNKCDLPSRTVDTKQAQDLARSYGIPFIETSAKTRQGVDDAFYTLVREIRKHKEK
# Sequence (P62937 whole entry): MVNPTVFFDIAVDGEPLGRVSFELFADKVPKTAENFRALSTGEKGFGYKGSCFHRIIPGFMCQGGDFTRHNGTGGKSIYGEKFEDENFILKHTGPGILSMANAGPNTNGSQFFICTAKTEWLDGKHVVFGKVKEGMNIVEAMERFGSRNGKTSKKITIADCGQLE
# method: Ras-Raf disruption/FRET/MOA assay (BRAF RBD, Cyclophilin A)
# Format: biochemical
# measurement_context: read-out: KRAS G12C FRET IC50
Listed molecules paired with reported IC50

| molecule | IC50 |
| --- | --- |
| CCn1c(-c2cccnc2[C@H](C)OC)c2c3cc(ccc31)-c1cc(O)cc(c1)C[C@H](NC(=O)[C@H](C(C)C)N(C)C(=O)C1CCNC13CCC3)C(=O)N1CCC[C@H](N1)C(=O)OCC(C)(C)C2 (stereo partly drawn) [Compound A393] | 0.01 to 0.1 µM |
| CCn1c(-c2cccnc2[C@H](C)OC)c2c3cc(ccc31)-c1csc(n1)C[C@H](NC(=O)[C@H](C(C)C)N(C)C(=O)N1CCCC[C@H](N(C)C)C1)C(=O)N1CCC[C@H](N1)C(=O)OCC(C)(C)C2 [Compound A491] | 0.01 to 0.1 µM |
| CCn1c(-c2cccnc2[C@H](C)OC)c2c3cc(ccc31)-c1csc(n1)C[C@H](NC(=O)[C@H](C(C)C)N(C)C(=O)N1C[C@@H](C)N(C)C[C@@H]1C)C(=O)N1CCC[C@H](N1)C(=O)OCC(C)(C)C2 [Compound A292] | 0.1 to 1 µM |
| CCn1c(-c2cccnc2[C@H](C)OC)c2c3cc(ccc31)-c1csc(n1)C[C@H](NC(=O)[C@H](C(C)C)N(C)C(=O)C1COC1)C(=O)N1CCC[C@H](N1)C(=O)OCC(C)(C)C2 [Compound A245] | 1 to 10 µM |
| CCn1c(-c2cccnc2[C@H](C)OC)c2c3cc(ccc31)-c1csc(n1)C[C@H](NC(=O)[C@H](C(C)C)N(C)C(=O)N1C[C@H]3CCN(C)[C@H]3C1)C(=O)N1CCC[C@H](N1)C(=O)OCC(C)(C)C2 [Compound A568] | 0.1 to 1 µM |
| CCn1c(-c2cccnc2[C@H](C)OC)c2c3cc(ccc31)-c1csc(n1)C[C@H](NC(=O)[C@H](C(C)C)N1CCC3(CCN(C)C3)C1=O)C(=O)N1CCC[C@H](N1)C(=O)OCC(C)(C)C2 (stereo partly drawn) [Compound A213] | 1 to 10 µM |
| CCn1c(-c2cc(N3CCN(C)CC3)cnc2[C@H](C)OC)c2c3cc(ccc31)-c1csc(n1)C[C@H](NC(=O)[C@H](C(C)C)N(C)C(=O)[C@@H]1CCCS1(=O)=O)C(=O)N1CCC[C@H](N1)C(=O)OCC(C)(C)C2 [Compound A440] | 0.1 to 1 µM |
| CCn1c(-c2cc(N3CCN(C)CC3)cnc2[C@H](C)OC)c2c3cc(ccc31)-c1csc(n1)C[C@H](NC(=O)[C@H](C(C)C)N(C)C(=O)[C@@H]1OCC[C@@H]1c1cccnc1)C(=O)N1CCC[C@H](N1)C(=O)OCC(C)(C)C2 [Compound A490] | 0.1 to 1 µM |
| CCn1c(-c2cccnc2[C@H](C)OC)c2c3cc(ccc31)-c1csc(n1)C[C@H](NC(=O)[C@H](C(C)C)N(C)C(=O)N1C[C@H]3COC[C@H]3C1)C(=O)N1CCC[C@H](N1)C(=O)OCC(C)(C)C2 [Compound A312] | 0.01 to 0.1 µM |
| CCn1c(-c2cccnc2[C@H](C)OC)c2c3cc(ccc31)-c1csc(n1)C[C@H](NC(=O)[C@H](C(C)C)N(C)C(=O)N1CC(OC)C1)C(=O)N1CCC[C@H](N1)C(=O)OCC(C)(C)C2 [Compound A205] | 0.01 to 0.1 µM |
| CCn1c(-c2cccnc2[C@H](C)OC)c2c3cc(ccc31)-c1csc(n1)C[C@H](NC(=O)[C@H](C(C)C)N(C)C(=O)N1CC([C@@H](C)OC)C1)C(=O)N1CCC[C@H](N1)C(=O)OCC(C)(C)C2 [Compound A278] | 0.01 to 0.1 µM |
| CCn1c(-c2cccnc2[C@H](C)OC)c2c3cc(ccc31)-c1cc(O)cc(c1)C[C@H](NC(=O)[C@H](C(C)C)N(C)C(=O)[C@@H]1[C@H]3CC[C@H](C3)[C@@H]1N)C(=O)N1CCC[C@H](N1)C(=O)OCC(C)(C)C2 [Compound A417] | 0.1 to 1 µM |
